protein stability index: recorded values
- assay-details: protein stability index of a GFP-peptide fusion (GPS, HEK-293T) (PSI 1-6); higher = more stable;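 further: 24-mer peptide tiles fused after GFP, lentivirally expressed, FACS-sorted into six equal bins by GFP/DsRed ratio, decoded by Illumina sequencing, PSI is the read-weighted mean bin number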
- test-parameters: treatment: MLN4924 1 uM, 8 h; c terminus: a fixed tail appended
Number only, no unit.

Exam item: Can you look up the measured protein stability index of PRAAGTDGSDFQHRERVAMHYQMS [JAGN1] for me?
Marked response: 4.06

Exam item: Can you look up the measured protein stability index of LPPPCAALWCSGHLNGHAMCQTKH [ADAMTS4] for me?
Marked response: 3.17

---
Exam item: Can you look up the measured protein stability index of SEASKAFQMEKIEHGYENMNHFTV [TRIM55] for me?
Marked response: 3.38

Exam item: Can you look up the measured protein stability index of ERTYSANCSDFLESKGCFANTTPS [SPATS1] for me?
Marked response: 3.56

Exam item: Can you look up the measured protein stability index of LTQKKPFADEKNILHIMVKVVKGH [RIPK4] for me?
Marked response: 1.79

Exam item: Can you look up the measured protein stability index of QVSQVKGAARLALLQGAGLDVERW [FCHSD1] for me?
Marked response: 3.16

Exam item: Can you look up the measured protein stability index of PYFSPSASFHHKLHHKRLAKECML [CBY2] for me?
Marked response: 2.5

Exam item: Can you look up the measured protein stability index of IYPVWTYSYLVLLFPVFLATDYLR [SLC19A2] for me?
Marked response: 3.29
